Hello, the source for this data is ChEMBL document CHEMBL5724914, in case you need it.

protocolText: The drug is tested on Z-002 corresponding to rabbit gut metagenome with ENA study accession number: PRJEB37062 and ENA sample accession number: ERS12561802 for biotransformation under anaerobic condition. The drug concentrations were measured over 9 timepoints collected between 0 and 24 hours of incubation by liquid-chromatography-coupled mass spectrometry (LC–MS); further: call rule not given here
particulars: 2 µM
measuredParameter: Bacterial Biotransformation

> print(dat)
                                    molecule            measuredparameter             recordedvalue
 1  O=C1C(CC[S+]([O-])c2ccccc2)C(=O)N(c2ccccc2)N1c1ccccc1 (stereo not given)  Bacterial Biotransformation      Compound metabolized
 2  CN1CCN2c3ccccc3Cc3ccccc3C2C1 (stereo not given)  Bacterial Biotransformation      Compound metabolized
 3  CN[C@H]1CC[C@@H](c2ccc(Cl)c(Cl)c2)c2ccccc21  Bacterial Biotransformation  Compound NOT metabolized
 4  CC1=C(CC(=O)O)c2cc(F)ccc2/C1=C\c1ccc([S+](C)[O-])cc1 (stereo not given)  Bacterial Biotransformation  Compound NOT metabolized
 5  C[N+]12CCC(CC1)C(OC(=O)C(O)(c1ccccc1)c1ccccc1)C2.[Br-] (stereo not given) [CLIDINIUM BROMIDE]  Bacterial Biotransformation  Compound NOT metabolized
 6  CCN(C)C(=O)Oc1cccc([C@H](C)N(C)C)c1.O=C(O)C(O)C(O)C(=O)O [RIVASTIGMINE TARTRATE]  Bacterial Biotransformation  Compound NOT metabolized
 7       Cc1cc2c(s1)Nc1ccccc1N=C2N1CCN(C)CC1  Bacterial Biotransformation      Compound metabolized
 8  CCOc1ccccc1OCCN[C@H](C)Cc1ccc(OC)c(S(N)(=O)=O)c1.Cl [TAMSULOSIN HYDROCHLORIDE]  Bacterial Biotransformation      Compound metabolized
 9  CC1Cc2ccccc2N1NC(=O)c1ccc(Cl)c(S(N)(=O)=O)c1 (stereo not given) [INDAPAMIDE]  Bacterial Biotransformation  Compound NOT metabolized
10  CC[C@H](C)C(=O)O[C@H]1CCC=C2C=C[C@H](C)[C@H](CC[C@@H]3C[C@@H](O)CC(=O)O3)[C@H]21  Bacterial Biotransformation  Compound NOT metabolized
11  C[C@H]1C[C@H]2[C@@H]3CCC4=CC(=O)C=C[C@]4(C)[C@@]3(F)[C@@H](O)C[C@]2(C)[C@@]1(O)C(=O)CO  Bacterial Biotransformation      Compound metabolized
12  COC(=O)C(c1ccccc1)C1CCCCN1 (stereo not given) [METHYLPHENIDATE]  Bacterial Biotransformation      Compound metabolized
13  CCCC(C)(COC(N)=O)COC(=O)NC(C)C (stereo not given)  Bacterial Biotransformation      Compound metabolized
14  O=C1CC2(CCCC2)CC(=O)N1CCCCN1CCN(c2ncccn2)CC1  Bacterial Biotransformation      Compound metabolized
15  CN1[C@@H]2CC[C@H]1C[C@@H](OC(=O)c1c[nH]c3ccccc13)C2  Bacterial Biotransformation  Compound NOT metabolized
16  CC(C)c1c(CN(C)C(C)Cc2ccccc2)n(C)n(-c2ccccc2)c1=O (stereo not given)  Bacterial Biotransformation      Compound metabolized
17  CN1CCC(=C2c3ccccc3CC(=O)c3sccc32)CC1.O=C(O)/C=C/C(=O)O [KETOTIFEN FUMARATE]  Bacterial Biotransformation  Compound NOT metabolized
18  CSc1ccc2c(c1)C(N1CCN(C)CC1)Cc1ccccc1S2.O=C(O)/C=C\C(=O)O (stereo not given)  Bacterial Biotransformation      Compound metabolized
19  O=C(O)CCC(=O)O.O=C(O[C@H]1CN2CCC1CC2)N1CCc2ccccc2[C@@H]1c1ccccc1 [SOLIFENACIN SUCCINATE]  Bacterial Biotransformation      Compound metabolized
20  COc1cc2nc(N3CCN(C(=O)C4CCCO4)CC3)nc(N)c2cc1OC (stereo not given)  Bacterial Biotransformation  Compound NOT metabolized
21  COC(=O)[C@H](c1ccccc1Cl)N1CCc2sccc2C1.O=S(=O)(O)O [CLOPIDOGREL BISULFATE]  Bacterial Biotransformation      Compound metabolized
22  O=C1CCc2ccc(OCCCCN3CCN(c4cccc(Cl)c4Cl)CC3)cc2N1  Bacterial Biotransformation  Compound NOT metabolized
23   COc1ccc(/C=C/C(=O)Nc2ccccc2C(=O)O)cc1OC  Bacterial Biotransformation      Compound metabolized
24  CN(CCOc1ccc(CC2SC(=O)NC2=O)cc1)c1ccccn1.O=C(O)/C=C\C(=O)O (stereo not given) [ROSIGLITAZONE MALEATE]  Bacterial Biotransformation  Compound NOT metabolized
25       CCS(=O)(=O)CCn1c([N+](=O)[O-])cnc1C  Bacterial Biotransformation      Compound metabolized
26  CCOC(=O)[C@H](CCc1ccccc1)N[C@@H](C)C(=O)N1CCC[C@H]1C(=O)O.O=C(O)/C=C\C(=O)O [ENALAPRIL MALEATE]  Bacterial Biotransformation      Compound metabolized
27  O=C1CN2Cc3c(ccc(Cl)c3Cl)N=C2N1 [ANAGRELIDE]  Bacterial Biotransformation  Compound NOT metabolized
28  CCN(CC)CCNC(=O)c1cc(S(C)(=O)=O)ccc1OC [TIAPRIDE]  Bacterial Biotransformation      Compound metabolized
29           CN1CCC(OC(c2ccccc2)c2ccccc2)CC1  Bacterial Biotransformation  Compound NOT metabolized
30     N[C@@H](Cc1ccc(N(CCCl)CCCl)cc1)C(=O)O  Bacterial Biotransformation      Compound metabolized
31    CC(=O)Nc1ccc(OC(C)=O)cc1 [DIACETAMATE]  Bacterial Biotransformation      Compound metabolized
32  C#C[C@]1(OC(C)=O)CC[C@H]2[C@@H]3CCC4=C[C@@H](OC(C)=O)CC[C@@H]4[C@H]3CC[C@@]21C [ETHYNODIOL DIACETATE]  Bacterial Biotransformation      Compound metabolized
33  Cc1ccc(NC(=O)c2ccc(CN3CCN(C)CC3)cc2)cc1Nc1nccc(-c2cccnc2)n1  Bacterial Biotransformation  Compound NOT metabolized
34  CCN(CC)C(=O)C1(c2ccccc2)CC1CN (stereo not given)  Bacterial Biotransformation  Compound NOT metabolized
35  COc1cc(C(=O)NCc2ccc(OCCN(C)C)cc2)cc(OC)c1OC [TRIMETHOBENZAMIDE]  Bacterial Biotransformation  Compound NOT metabolized
